Protocol summary: Acute Toxicity in Mice
Test context: mouse, in vivo; oral, six weeks old male ICR mice, suspended in 0.5% methylcellulose; Litchfield & Wilcoxon
Counter-ions that a name gives are not always drawn.
Reported endpoint: LD50 (mg/kg)

molecule="COC(=O)C1=C(C)NC(C)=C(C(=O)OC2CCN(Cc3ccccc3)C2)C1c1cccc([N+](=O)[O-])c1 (single isomer, unassigned) [Diastereoisomer A (dl form) hydrochloride]" numeric_readout=295
molecule="COC(=O)C1=C(C)NC(C)=C(C(=O)O[C@H]2CCN(Cc3ccccc3)C2)C1c1cccc([N+](=O)[O-])c1 (single isomer, unassigned) [Diastereoisomer A (d form) hydrochloride]" numeric_readout=190
